Target: PVY in juice of infected plants (coat protein on virus) (Potato virus Y)
Assay: dot-ELISA on diluted juice of PVY-infected plants
Reported dilution of PVY-infected juice still detected values are given for each entry in this list.
Endpoint label: dilution of PVY-infected juice still detected

>  <Binder>
monoclonal antibody M3 (antibody, V domains shown, also called MAb M3) VH: EVILVESGGGLVKPGGSLRLSCAASGFTFSSHPLSWVRQSPDKRLEWVASISSGGRYTYYPDSVKGRLTISRDNAKNILYLHMNSLRSEDTAMYYCARRGSTATAWFAYWGQGTLVTVSA VL: DIALTQSPASLAVSLGQRATISCKASQSVDYDGDSYMSWYQQKPGQPPKLLIYGASNLESGIPARFSGSGSGTDFTLNIHPVEEEDAATYYCQQSNEDLPTFGGGTKLEIK

>  <Observed value>
5120 times (fold dilution)

$$$$
>  <Binder>
monoclonal antibody N1 (antibody, V domains shown, also called MAb N1) VH: EVQLVESGGGLVQPGGSLKLSCAASGFTFSSYGMSWVRQSPDKRLEWVATINNNGGSTYYPDSVKGRFTISRDNAKNTLYLQMSSLKSEDTAVYYCARDAAFDCWGQGTTLTVSS VL: DIVMSQSPSSLAVSAGEKVTMSCKSSQSLLNSRTRKNYLAWYQQKPGQSPKLLIYWASTRESGVPDRFTGSGSGTDFTLTISSVQAEDLAVYYCKQSYNLFTFGSGTKLEIK

>  <Observed value>
10200 times (fold dilution)

$$$$
>  <Binder>
monoclonal antibody C1 (antibody, V domains shown, also called MAb C1) VH: EVQLQQSGAELVRPGALVKLSCKASGFNIKDYYMHWVKQRPEEGLEWIGWIDPENGNTIYDPKFQGKASITADTSSNTVRLQLSSLTSEDTAVYYCARERGAYWGQGTLVTVSA VL: QIVLTQSPAIMSASPGEKVTMTCSASSSVSYMYWFQQKPGSSPRLLIYDTSNLASGVPVRFSGSGSGTSYSLTISRMEAEDAATFYCQQWSSYPLTFGAGTKLELK

>  <Observed value>
5120 times (fold dilution)

$$$$
